log2 fold change of degron read counts values, listed per item
# TARGET_OR_SYSTEM: T1, CRBN, Q96SW2;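 further: pooled lentiviral library of zinc finger degron-EGFP fusions in mCherry-positive Jurkat cells, FACS-sorted after compound exposure, with degron abundance counted by next-generation sequencing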
# T1 chain: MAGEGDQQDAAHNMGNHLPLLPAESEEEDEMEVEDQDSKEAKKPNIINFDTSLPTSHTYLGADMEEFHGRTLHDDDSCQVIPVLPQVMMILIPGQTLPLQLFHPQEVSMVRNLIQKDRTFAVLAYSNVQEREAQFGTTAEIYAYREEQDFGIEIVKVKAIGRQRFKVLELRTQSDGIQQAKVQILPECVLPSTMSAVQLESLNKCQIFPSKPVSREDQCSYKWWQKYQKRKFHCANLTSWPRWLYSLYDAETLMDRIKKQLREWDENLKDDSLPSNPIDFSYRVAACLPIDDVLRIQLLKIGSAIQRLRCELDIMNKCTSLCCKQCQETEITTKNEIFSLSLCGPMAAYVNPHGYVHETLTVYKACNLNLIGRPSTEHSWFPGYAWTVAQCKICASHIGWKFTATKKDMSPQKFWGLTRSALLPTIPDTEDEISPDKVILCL
# ASSAY_OVERVIEW: log2 fold change of degron read counts, EGFP-low vs EGFP+ sorted cells (limma voom), compound-induced degradation; higher = more compound-induced degradation of the degron-EGFP fusion; degrons are variants of IKZF1/3 zinc finger 2; compound dose not given here
# TEST_CONTEXT: Jurkat; 18 h; compound: compound 19 (5-tert-butyl-thalidomide)
In all, about 8,300 sequences were measured (“log2 fold change of degron read counts, EGFP-low vs EGFP+ sorted cells (limma voom), compound-induced degradation”: median about -1.1, highest 2% from about 3.2 on). Shown is part of a subset that was picked to be rich in the highest values.
MEASURED_METRIC: log2 fold change of degron read counts

1) LECNQCGFWCTQKGNLLRHIKL [46L_47E_49N_50Q_52G_53F_54W_55C_67L_, Q9UKT9] :: -1.99
2) LCCNQCGFRCTQKGNLLRHIKL [46L_47C_49N_50Q_52G_53F_54R_55C_67L_, Q9UKT9] :: -1.39
3) FECEICGHPFTQKGNLLRHIKL [46F_47E_49E_50I_52G_53H_54P_55F_67L_, Q9UKT9] :: -2.97
4) FRCSVCGHRFTQKGNLLRHIKL [46F_47R_49S_50V_52G_53H_54R_55F_67L_, Q9UKT9] :: -2.02
5) FECNQCGANFTQKGNLLRHIKL [46F_47E_49N_50Q_52G_53A_54N_55F_67L_, Q9UKT9] :: -3.06
6) FLCNQCGRKFTQKGNLLRHIKL [46F_47L_49N_50Q_52G_53R_54K_55F_67L_, Q9UKT9] :: -3.07
7) FYCEVCGALFTQKGNLLRHIKL [46F_47Y_49E_50V_52G_53A_54L_55F_67L_, Q9UKT9] :: 3.18
8) FDCEICGRTFTQKGNLLRHIKL [46F_47D_49E_50I_52G_53R_54T_55F_67L_, Q9UKT9] :: -2.33
9) FICEVCGARFTQKGNLLRHIKL [46F_47I_49E_50V_52G_53A_54R_55F_67L_, Q9UKT9] :: 0.108
10) FDCSVCGHIFTQKGNLLRHIKL [46F_47D_49S_50V_52G_53H_54I_55F_67L_, Q9UKT9] :: -1.69
11) FYCEVCGARFTQKGNLLRHIKL [46F_47Y_49E_50V_52G_53A_54R_55F_67L_, Q9UKT9] :: 3.84
12) LYCNQCGFYCTQKGNLLRHIKL [46L_47Y_49N_50Q_52G_53F_54Y_55C_67L_, Q9UKT9] :: -0.857
13) FDCNICGAGFTQKGNLLRHIKL [46F_47D_49N_50I_52G_53A_54G_55F_67L_, Q9UKT9] :: -0.56
14) FWCEVCGARFTQKGNLLRHIKL [46F_47W_49E_50V_52G_53A_54R_55F_67L_, Q9UKT9] :: 3.36
15) FECEVCGARFTQKGNLLRHIKL [46F_47E_49E_50V_52G_53A_54R_55F_67L_, Q9UKT9] :: 1.13
16) FNCNQCGRAFTQKGNLLRHIKL [46F_47N_49N_50Q_52G_53R_54A_55F_67L_, Q9UKT9] :: -2.53
17) FWCDQCGAQFTQKGNLLRHIKL [46F_47W_49D_50Q_52G_53A_54Q_55F_67L_, Q9UKT9] :: 0.249
18) FGCPQCGALFTQKGNLLRHIKL [46F_47G_49P_50Q_52G_53A_54L_55F_67L_, Q9UKT9] :: 0.741
19) FWCEVCGADFTQKGNLLRHIKL [46F_47W_49E_50V_52G_53A_54D_55F_67L_, Q9UKT9] :: -0.303
20) FGCNQCGRQFTQKGNLLRHIKL [46F_47G_49N_50Q_52G_53R_54Q_55F_67L_, Q9UKT9] :: -1.78
21) FACDICGAAFTQKGNLLRHIKL [46F_47A_49D_50I_52G_53A_54A_55F_67L_, Q9UKT9] :: 3.42
22) FCCDICGAAFTQKGNLLRHIKL [46F_47C_49D_50I_52G_53A_54A_55F_67L_, Q9UKT9] :: 2.88
23) FVCNQCGRLFTQKGNLLRHIKL [46F_47V_49N_50Q_52G_53R_54L_55F_67L_, Q9UKT9] :: -1.99
24) FECNICGALFTQKGNLLRHIKL [46F_47E_49N_50I_52G_53A_54L_55F_67L_, Q9UKT9] :: -3.14
25) FWCEQCGANFTQKGNLLRHIKL [46F_47W_49E_50Q_52G_53A_54N_55F_67L_, Q9UKT9] :: 0.0998
26) FYCDICGAAFTQKGNLLRHIKL [46F_47Y_49D_50I_52G_53A_54A_55F_67L_, Q9UKT9] :: 3.37
27) FFCSVCGHHFTQKGNLLRHIKL [46F_47F_49S_50V_52G_53H_54H_55F_67L_, Q9UKT9] :: -2.1
28) FVCNQCGAAFTQKGNLLRHIKL [46F_47V_49N_50Q_52G_53A_54A_55F_67L_, Q9UKT9] :: -2.28
29) FVCDICGAAFTQKGNLLRHIKL [46F_47V_49D_50I_52G_53A_54A_55F_67L_, Q9UKT9] :: 0.447
